System: HUVECs
method: Tube formation (tubulogenesis) assay in HUVECs, 18 h
Type: cell-based, human
recorded-conditions: Homo sapiens, HUVEC, 18 h, HUVECs, 100.00 µM, 0.00 µM = 100.00, read-out: huvec.tta.18hr
Structures can show the parent of a compound that is named as a salt.
measured-metric: activity at 100 µM (%)
Answers are plain numbers, in %.

[
  {
    "molecule": "O=S(=O)(O)Oc1cc(-c2ccccc2)ccc1Cl [3-yl PCB 3 sulfate]",
    "activity at 100 µM (%)": 63.7
  },
  {
    "molecule": "O=S(=O)(O)Oc1ccc(-c2ccc(Cl)cc2)cc1 [4'-yl PCB 3 sulfate]",
    "activity at 100 µM (%)": 53.2
  },
  {
    "molecule": "Oc1ccc(-c2ccc(Cl)cc2)cc1",
    "activity at 100 µM (%)": 11.6
  }
]

For each of the molecules below, state activity at 100 µM.
1. Clc1ccc(Cl)c(-c2cc(Cl)ccc2Cl)c1
2. Oc1ccccc1-c1ccc(Cl)cc1
3. O=S(=O)(O)Oc1ccc(-c2cccc(Cl)c2)cc1Cl [4-yl PCB 11 sulfate]

OUTPUT:
1. 94.8
2. 64
3. 50.9

====

Assign viability at 0.1 µM to each entry below.
Tested on: HUVECs
method: High-content imaging cytotoxicity in HUVECs, 24 h
Format: cell-based, human
recorded-conditions: Homo sapiens, HUVEC, 24 h, HUVECs, 24 hr, 0.10 µM; 0.00 µM = 100.00; read-out: huvec.cyto.24hr
Counter-ions that a name gives are not always drawn.
One number for each entry, in %.

[
  {
    "compound": "O=S(=O)(O)Oc1ccc(-c2cccc(Cl)c2)cc1Cl [4-yl PCB 11 sulfate]",
    "value-measured": 86.8
  },
  {
    "compound": "Oc1cc(Cl)cc(-c2cccc(Cl)c2)c1 [5-OH PCB 11]",
    "value-measured": 87.5
  },
  {
    "compound": "Oc1ccc(-c2ccc(Cl)cc2)cc1 [4'-OH PCB3]",
    "value-measured": 96.6
  }
]

For every listed record, write down its viability at 0.1 µM.
1. Oc1ccccc1-c1ccc(Cl)cc1 [2'-OH PCB3]
2. O=S(=O)(O)Oc1cccc(-c2ccc(Cl)cc2)c1 [3'-yl PCB 3 sulfate]

OUTPUT:
84.3
97

====

Tested on: iCell cardiomyocytes (human iPSC-derived cardiomyocytes)
method: High-content imaging of cytotoxicity and mitochondrial integrity in iPSC-CMs
Format: cell-based
recorded-conditions: Homo sapiens, Cardiomyocyte, 24 h, 10.00 µM; 0.00 µM = 100.00; read-out: cm.cam.24hrs
Where a name gives a salt, the structure may show the parent alone.
Please provide measured viability at 10 µM for the entries that follow.
One number for each entry, in %.

// below: answered compounds
[
  {
    "compound": "O=S(=O)(O)Oc1cc(-c2ccccc2)ccc1Cl [3-yl PCB 3 sulfate]",
    "viability at 10 µM / %": 91.9
  },
  {
    "compound": "O=C1C=CC(=O)C(c2ccc(Cl)cc2)=C1 [4-Cl-BQ, 2-(4-Chlorophenyl)benzo-2,5-quinone]",
    "viability at 10 µM / %": 51.1
  },
  {
    "compound": "Oc1ccc(-c2cccc(Cl)c2)cc1Cl [4-OH PCB11]",
    "viability at 10 µM / %": 93.1
  },
  {
    "compound": "COc1ccc(-c2ccc(Cl)cc2)cc1 [4'-OMe PCB3]",
    "viability at 10 µM / %": 104
  }
]

Entry COc1ccc(-c2cccc(Cl)c2)cc1Cl [4-OMe PCB11] ; viability at 10 µM = 102

====

Test system: iCell cardiomyocytes (human iPSC-derived cardiomyocytes)
method: Intracellular Ca2+ flux / beating parameters in iCell cardiomyocytes (FLIPR tetra), 90 min or 24 h
Assay type: cell-based
recorded-conditions: Homo sapiens, Cardiomyocyte, 24 h, 0.01 µM; 0.00 µM = 100.00; read-out: cm.spacing.cv.24hrs
Protocol: Details on cardiomyocyte cell culture are described in detail elsewhere ([Grimm et al. 2015b]; [Sirenko et al. 2013a]). […] Live cell counts for each cell suspension were determined by trypan blue staining and cells were further diluted to provide final cell densities of 2×10^5 viable cells/ml. […] Responses of iCell®-cardiomyocytes to drugs and chemicals were evaluated using intracellular Ca^2+ flux measurements ([Grimm et al. 2015b]; [Sirenko et al. 2013b]). […]
Where a name gives a salt, the structure may show the parent alone.
measured-metric: activity at 0.01 µM (%)
One number for each entry, in %.

For orientation, consider the following solved cases.
[
  {
    "molecule": "O=S(=O)(O)Oc1cc(Cl)ccc1-c1ccccc1 [2-yl PCB 3 sulfate]",
    "target-entity": "iCell cardiomyocytes (human iPSC-derived cardiomyocytes)",
    "unit-of-measurement": "%",
    "activity at 0.01 µM": 109
  },
  {
    "molecule": "O=S(=O)(O)Oc1cc(-c2ccccc2)ccc1Cl [3-yl PCB 3 sulfate]",
    "target-entity": "iCell cardiomyocytes (human iPSC-derived cardiomyocytes)",
    "unit-of-measurement": "%",
    "activity at 0.01 µM": 62.7
  },
  {
    "molecule": "Oc1cc(Cl)cc(-c2cccc(Cl)c2)c1",
    "target-entity": "iCell cardiomyocytes (human iPSC-derived cardiomyocytes)",
    "unit-of-measurement": "%",
    "activity at 0.01 µM": 112
  },
  {
    "molecule": "COc1ccc(-c2ccc(Cl)cc2)cc1",
    "target-entity": "iCell cardiomyocytes (human iPSC-derived cardiomyocytes)",
    "unit-of-measurement": "%",
    "activity at 0.01 µM": 116
  },
  {
    "molecule": "Clc1ccc(-c2ccccc2)cc1",
    "target-entity": "iCell cardiomyocytes (human iPSC-derived cardiomyocytes)",
    "unit-of-measurement": "%",
    "activity at 0.01 µM": 138
  },
  {
    "molecule": "O=S(=O)(O)Oc1ccc(-c2ccc(Cl)cc2)cc1 [4'-yl PCB 3 sulfate]",
    "target-entity": "iCell cardiomyocytes (human iPSC-derived cardiomyocytes)",
    "unit-of-measurement": "%",
    "activity at 0.01 µM": 96.8
  }
]

Fill in activity at 0.01 µM for each of the 2 molecules listed.
1. Oc1ccccc1-c1ccc(Cl)cc1
2. COc1ccc(-c2cccc(Cl)c2)cc1Cl

OUTPUT:
1: 120; 2: 108

====

Assign endo.mitoint.24hr to each entry below.
System: iPSC-CMs, iPSC-ECs and HUVECs phenotypes
method: ToxPi 2.0 integration of POD values and physicochemical descriptors
Design: species or system human
recorded-conditions: ToxPi-scaled (0-1) score; iPSC endothelial cells, 24 h
Where a name gives a salt, the structure may show the parent alone.
Answers are plain numbers.

[
  {
    "compound": "O=S(=O)(O)Oc1ccc(-c2cccc(Cl)c2)cc1Cl [4-PCB 11 sulfate]",
    "measured-metric": "endo.mitoint.24hr",
    "value-measured": 0
  },
  {
    "compound": "O=S(=O)(O)Oc1cc(-c2ccccc2)ccc1Cl [3-PCB 3 sulfate]",
    "measured-metric": "endo.mitoint.24hr",
    "value-measured": 0
  },
  {
    "compound": "Clc1ccc(-c2cc(Cl)c(Cl)c(Cl)c2)cc1Cl",
    "measured-metric": "endo.mitoint.24hr",
    "value-measured": 0.315
  },
  {
    "compound": "Clc1cc(Cl)c(-c2cc(Cl)c(Cl)cc2Cl)cc1Cl",
    "measured-metric": "endo.mitoint.24hr",
    "value-measured": 1
  },
  {
    "compound": "Clc1ccc(-c2ccccc2)cc1",
    "measured-metric": "endo.mitoint.24hr",
    "value-measured": 0
  }
]

// for each compound below, give its endo.mitoint.24hr
1. Oc1cc(Cl)cc(-c2cccc(Cl)c2)c1
2. Oc1cccc(-c2ccc(Cl)cc2)c1

OUTPUT:
1: 0.08226; 2: 0

====

Could you please report measured activity at 100 µM for the items listed next?
System: iCell cardiomyocytes (human iPSC-derived cardiomyocytes)
method: High-content imaging of cytotoxicity and mitochondrial integrity in iPSC-CMs
Assay type: cell-based
recorded-conditions: Homo sapiens, Cardiomyocyte, 1.5 h, 100.00 µM; 0.00 µM = 100.00; read-out: cm.mito.90min
Counter-ions that a name gives are not always drawn.
One number for each entry, in %.

In the examples that follow, each entry is paired with its recorded activity at 100 µM.
[
  {
    "molecule": "Oc1ccc(-c2cccc(Cl)c2)cc1Cl [4-OH PCB11]",
    "value-measured": 0.0462
  },
  {
    "molecule": "O=C1C=CC(=O)C(c2ccc(Cl)cc2)=C1 [4-Cl-BQ, 2-(4-Chlorophenyl)benzo-2,5-quinone]",
    "value-measured": 0.09
  },
  {
    "molecule": "Oc1ccccc1-c1ccc(Cl)cc1 [2'-OH PCB3]",
    "value-measured": 0.07
  }
]

Go through the list and state activity at 100 µM for each entry.
1. O=S(=O)(O)Oc1cc(-c2ccccc2)ccc1Cl [3-yl PCB 3 sulfate]
2. O=S(=O)(O)Oc1ccc(-c2cccc(Cl)c2)cc1Cl [4-yl PCB 11 sulfate]

OUTPUT:
1: 104; 2: 99.1
